- target-or-test-system: C-X-C chemokine receptor type 3 (Homo sapiens, UniProt P49682)
- Sequence (P49682 whole entry): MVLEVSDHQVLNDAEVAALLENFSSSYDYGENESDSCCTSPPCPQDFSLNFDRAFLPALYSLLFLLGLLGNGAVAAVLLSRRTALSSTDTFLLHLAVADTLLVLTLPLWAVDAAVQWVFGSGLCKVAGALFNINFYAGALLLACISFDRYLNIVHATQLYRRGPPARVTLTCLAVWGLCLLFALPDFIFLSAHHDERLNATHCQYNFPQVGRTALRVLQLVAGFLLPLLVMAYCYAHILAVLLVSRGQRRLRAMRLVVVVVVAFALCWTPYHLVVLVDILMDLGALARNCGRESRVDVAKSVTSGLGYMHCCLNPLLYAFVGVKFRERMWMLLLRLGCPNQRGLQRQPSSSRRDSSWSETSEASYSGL
- test-method-notes: Antagonist activity at human CXCR3 expressed in mouse L1.2 cells assessed as inhibition of ITAC-induced calcium mobilization by FLIPR assay
- Assay type: functional, cell-based
The compounds listed here are annotated with their pIC50.
Just so you know, pIC50 here is -log10 of the concentration in molar units; reply with that number alone.

# structure, pIC50
data = [
    ("O=C([C@@H]1C=C2c3cccc4[nH]cc(c34)C[C@H]2N(C(=O)Nc2ccccc2)C1)N1CCS(=O)(=O)CC1", 7.17),
    ("CN1CCN(C(=O)[C@@H]2C=C3c4cccc5[nH]cc(c45)C[C@H]3N(C(=O)Nc3ccccc3)C2)CC1", 7.08),
]

Here's the next entry for you.
The measured pIC50 associated with CCNC(=O)[C@@H]1C=C2c3cccc4[nH]cc(c34)C[C@H]2N(C(=O)Nc2ccccc2)C1 reads 7.15

Cited source: ChEMBL document CHEMBL1806382
